molecular target: Beta-galactoside alpha-2,6-sialyltransferase 1 (Homo sapiens); assay: Inhibition of recombinant human ST6Gal-1 (44 to 406 residues) assessed as ratio of CMP-Neu5Ac Km to compound Ki […] by UV/RP-HPLC method
MEASURED_ENDPOINT: Ratio

Here's what some known entries look like.
COMPOUND	Ratio
Nc1ccn([C@@H]2O[C@H](COP(=O)(O)OC(CN3C(=O)CCC3=O)P(=O)(O)O)[C@@H](O)[C@H]2O)c(=O)n1 (stereo in doubt; 5e-s)	186
CC(=O)NC[C@@H]1CCC(OP(=O)(O)OC[C@H]2O[C@@H](n3ccc(N)nc3=O)[C@H](O)[C@@H]2O)(P(=O)(O)O)[C@H]1OCc1ccccc1 (stereo in doubt; 4-l)	87

[a] Nc1ccn([C@@H]2O[C@H](COP(=O)(O)OC(C(=O)N3CCCC3)P(=O)(O)O)[C@@H](O)[C@H]2O)c(=O)n1 (stereo in doubt; 5c-l)
[b] CC(=O)N[C@H]1[C@H](Oc2ccccc2)OC(C(OP(=O)(O)OC[C@H]2O[C@@H](n3ccc(N)nc3=O)[C@H](O)[C@@H]2O)P(=O)(O)O)=C[C@@H]1O (stereo in doubt; 1-l)
[c] Nc1ccn([C@@H]2O[C@H](COP(=O)(O)OC(CNC(=O)c3ccccc3)P(=O)(O)O)[C@@H](O)[C@H]2O)c(=O)n1 (stereo in doubt; 5a-s)
[d] Nc1ccn([C@@H]2O[C@H](COP(=O)(O)OC(C(=O)Nc3ccccc3)P(=O)(O)O)[C@@H](O)[C@H]2O)c(=O)n1 (stereo in doubt; 5b-s)
Put these in order: smallest Ratio first, largest last. Dear reader, please state the labels in the requested order.
b, a, d, c
(b: 67, a: 252, d: 393, c: 2600)

* * *

target: Beta-galactoside alpha-2,6-sialyltransferase 1 (Homo sapiens) (UniProt P15907); test: Inhibition of recombinant human N-terminal His-tagged ST6Gal-1 (44 to 406 residues) at 1 uM using CMP-Neu5Ac as substrate […] by UV/RP-HPLC method
Sequence (P15907 whole entry, the tested form may be a part): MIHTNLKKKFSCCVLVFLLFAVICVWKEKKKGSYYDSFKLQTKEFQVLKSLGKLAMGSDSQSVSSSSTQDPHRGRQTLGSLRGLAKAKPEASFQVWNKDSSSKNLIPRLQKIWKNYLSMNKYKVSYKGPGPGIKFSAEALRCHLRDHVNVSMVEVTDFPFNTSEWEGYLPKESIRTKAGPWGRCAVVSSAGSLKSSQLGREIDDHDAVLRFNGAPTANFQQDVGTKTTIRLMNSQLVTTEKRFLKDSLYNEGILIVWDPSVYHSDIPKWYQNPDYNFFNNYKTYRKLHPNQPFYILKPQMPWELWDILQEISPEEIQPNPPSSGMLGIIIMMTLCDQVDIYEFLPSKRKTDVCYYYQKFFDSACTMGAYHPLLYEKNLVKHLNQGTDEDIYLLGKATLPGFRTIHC
MEASURED_ENDPOINT: inhibition (%)

Here's what some known entries look like.
MOLECULE	UNITS_TEXT	inhibition
Nc1ccn([C@@H]2O[C@H](COP(=O)(O)OC(C(=O)Nc3ccccc3)P(=O)(O)O)[C@@H](O)[C@H]2O)c(=O)n1 (stereo in doubt; 5b-l)	%	67.7
Nc1ccn([C@@H]2O[C@H](COP(=O)(O)O[C@@H](c3cccc(Oc4ccccc4)c3)P(=O)(O)O)[C@@H](O)[C@H]2O)c(=O)n1	%	87.6
Nc1ccn([C@@H]2O[C@H](COP(=O)(O)OC(C(=O)N3CCCCC3)P(=O)(O)O)[C@@H](O)[C@H]2O)c(=O)n1 (stereo in doubt; 5d-s)	%	86.3
Nc1ccn([C@@H]2O[C@H](COP(=O)(O)OC(CN3C(=O)CCC3=O)P(=O)(O)O)[C@@H](O)[C@H]2O)c(=O)n1 (stereo in doubt; 5e-s)	%	58.8
Nc1ccn([C@@H]2O[C@H](COP(=O)(O)OC(C(=O)N3CCCC3)P(=O)(O)O)[C@@H](O)[C@H]2O)c(=O)n1 (stereo in doubt; 5c-l)	%	65.7

[I] Nc1ccn([C@@H]2O[C@H](COP(=O)(O)OC(CNC(=O)c3ccccc3)P(=O)(O)O)[C@@H](O)[C@H]2O)c(=O)n1 (stereo in doubt; 5a-l)
[II] Nc1ccn([C@@H]2O[C@H](COP(=O)(O)OC(CN3C(=O)CCC3=O)P(=O)(O)O)[C@@H](O)[C@H]2O)c(=O)n1 (stereo in doubt; 5e-l)
Smaller inhibition value, I vs II ? Give the label of your selection.
II

The origin of these recorded values is ChEMBL document CHEMBL4004834.
